Experiment: amyloid nucleation score (Sup35N fusion, yeast selection) (log enrichment); library NNK3; higher = more nucleation; inactive = no reads after selection;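 also: zero at mode of non-aggregating sequences after 7 days selection at 30°C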
Readout Type: amyloid nucleation score

{"columns": ["Substance", "amyloid nucleation score"],
 "data": [
  ["YKFSVTTL", "inactive"],
  ["VLSTVFKAKPNHNRAFMG", 0.063],
  ["SYCWRVSHGEYH", "inactive"],
  ["PGRYFMHLLELV", "inactive"]
]}

q: Give the measured amyloid nucleation score for `LSLATTSTLTLPMWKGTRLN`
a: 0.744

q: Give the measured amyloid nucleation score for `DCCGLVAYNLVFRICGACLG`
a: inactive

q: Give the measured amyloid nucleation score for `NIRICWG`
a: 0.795

q: Give the measured amyloid nucleation score for `RMHGETARWLGAQIWSDRSC`
a: inactive

q: Give the measured amyloid nucleation score for `TVMDVLCECYMIVFRG`
a: 0.875

q: Give the measured amyloid nucleation score for `PCSGDSLLVSNTKNRSL`
a: inactive

q: Give the measured amyloid nucleation score for `HMNDASPGTAKFEIV`
a: inactive
